Target system: human Cot/Tpl2 kinase (Homo sapiens)
Construct: human Cot/Tpl2 kinase construct encoding residues 30-398; 6His (N); made in house; host or cells: Sf9 insect cells (baculovirus system, BD Biosciences)
Sequence (P41279 30-398): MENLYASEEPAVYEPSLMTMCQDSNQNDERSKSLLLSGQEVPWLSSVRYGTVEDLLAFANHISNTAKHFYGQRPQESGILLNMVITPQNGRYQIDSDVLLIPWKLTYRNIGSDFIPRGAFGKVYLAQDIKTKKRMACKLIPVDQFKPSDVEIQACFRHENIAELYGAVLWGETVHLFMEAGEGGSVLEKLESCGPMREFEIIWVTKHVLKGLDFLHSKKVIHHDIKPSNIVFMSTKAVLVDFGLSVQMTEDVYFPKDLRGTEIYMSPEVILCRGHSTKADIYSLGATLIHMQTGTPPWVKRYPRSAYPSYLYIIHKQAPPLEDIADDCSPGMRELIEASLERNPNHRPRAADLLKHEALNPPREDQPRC
Experiment: Tpl2/Cot kinase assay, GST-MEK1 phosphorylation detected by ELISA (DELFIA Eu)
Format: biochemical
Experimental parameters: Table 2; additional representative compounds
pIC50: −log10 of the molar value.
# if value of pIC50 reaches 6, tag condition met; if it stays below, tag condition not met

// known answers, use as guide
[[record]]
molecule = "CS(=O)(=O)c1ccc(CNc2cc3c(NCc4ccc(S(C)(=O)=O)cc4)c(C#N)cnc3cn2)cc1"
target_system = "human Cot/Tpl2 kinase (Homo sapiens)"
assigned_class = "condition not met"

[[record]]
molecule = "C#CC1(Nc2c(C#N)cnc3cnc(F)cc23)CCCCC1"
target_system = "human Cot/Tpl2 kinase (Homo sapiens)"
assigned_class = "condition not met"

[[record]]
molecule = "N#Cc1cnc2cnc(F)cc2c1Nc1ccc(OC(F)(F)F)cc1"
target_system = "human Cot/Tpl2 kinase (Homo sapiens)"
assigned_class = "condition not met"

[[record]]
molecule = "N#Cc1cnc2cnc(F)cc2c1Nc1cccc([N+](=O)[O-])c1"
target_system = "human Cot/Tpl2 kinase (Homo sapiens)"
assigned_class = "condition not met"

[[record]]
molecule = "CC(C)(C)Nc1c(C#N)cnc2cnc(NCc3ccc(S(C)(=O)=O)cc3)cc12"
target_system = "human Cot/Tpl2 kinase (Homo sapiens)"
assigned_class = "condition not met"

[[record]]
molecule = "N#Cc1cnc2cnc(NCc3c(Cl)cccc3Cl)cc2c1NCc1c(Cl)cccc1Cl"
target_system = "human Cot/Tpl2 kinase (Homo sapiens)"
assigned_class = "condition not met"


Q: Does the reported pIC50 for "CN(C)CCNc1cc2c(Nc3ccc(Cc4ccccc4)cc3)c(C#N)cnc2cn1" fall at or above the 6 mark?
Result: condition not met

Q: Does the reported pIC50 for "COc1ccccc1CNc1cc2c(Nc3ccc(F)c(Cl)c3)c(C#N)cnc2cn1" fall at or above the 6 mark?
Result: condition met

Q: Does the reported pIC50 for "N#Cc1cnc2cnc(NC3CCCCCC3)cc2c1Nc1ccc(F)c(Cl)c1" fall at or above the 6 mark?
Result: condition not met

Q: Does the reported pIC50 for "N#Cc1cnc2cnc(NCc3cccnc3)cc2c1NC1CCNCC1" fall at or above the 6 mark?
Result: condition not met
